- assay_explanation: Aqueous solubility at pH 2
- Assay type: physicochemical
measured_metric: solubility (mg/mL)

compound_smiles=CC1(C)CNc2c(cc(CCC(=O)N3CCN(CC(=O)N4CCOCC4)CC3)cc2S(=O)(=O)N[C@@H](Cc2nc3ccccc3s2)C(=O)N2CCC(CCF)CC2)C1 unit_info=mg/mL measured_result=15

---

Listed compounds paired with reported bioavailability
- assay_explanation: Bioavailability in rat (intraduodenal administration)
- Assay type: ADME, organism-based
- conditions: in vivo
measured_metric: bioavailability (%)

compound_smiles=CC1(C)CNc2c(cc(CCC(=O)N3CCN(CC(=O)N4CCOCC4)CC3)cc2S(=O)(=O)N[C@@H](Cc2nc3ccccc3s2)C(=O)N2CCC(CCF)CC2)C1 measured_result=38
compound_smiles=CC1(C)CNc2c(cc(CCC(=O)O)cc2S(=O)(=O)N[C@@H](Cc2nc3ccccc3s2)C(=O)N2CCC(CCF)CC2)C1 measured_result=50

---

Listed molecules paired with reported solubility
- assay_explanation: Aqueous solubility at pH 7
- Assay type: physicochemical
measured_metric: solubility (µg/mL)

compound_smiles=CC1(C)CNc2c(cc(CCC(=O)O)cc2S(=O)(=O)N[C@@H](Cc2nc3ccccc3s2)C(=O)N2CCC(CCF)CC2)C1 measured_metric=solubility unit_info=µg/mL measured_result=5.15
compound_smiles=CC1(C)CNc2c(cc(CCC(=O)N3CCN(CC(=O)N4CCOCC4)CC3)cc2S(=O)(=O)N[C@@H](Cc2nc3ccccc3s2)C(=O)N2CCC(CCF)CC2)C1 measured_metric=solubility unit_info=µg/mL measured_result=130

---

Observed Ki, system Prothrombin (Homo sapiens).
measured_metric: Ki (nM)

compound_smiles=CC1(C)CNc2c(cc(CCCC(=O)O)cc2S(=O)(=O)N[C@@H](Cc2nc3ccccc3s2)C(=O)N2CCC(CCF)CC2)C1 measured_metric=Ki measured_result=94
compound_smiles=CC1(C)CNc2c(cc(CCC(=O)O)cc2S(=O)(=O)N[C@@H](Cc2nc3ccccc3s2)C(=O)N2CCC(CCF)CC2)C1 measured_metric=Ki measured_result=82
compound_smiles=CC1(C)CNc2c(cc(CCCO)cc2S(=O)(=O)N[C@@H](Cc2nc3ccccc3s2)C(=O)N2CCC(CCF)CC2)C1 measured_metric=Ki measured_result=119
compound_smiles=CC1(C)CNc2c(cc(CCNC(N)=O)cc2S(=O)(=O)N[C@@H](Cc2nc3ccccc3s2)C(=O)N2CCC(CCF)CC2)C1 measured_metric=Ki measured_result=47
compound_smiles=CC1(C)CNc2c(cc(C(=O)O)cc2S(=O)(=O)N[C@@H](Cc2nc3ccccc3s2)C(=O)N2CCC(CCF)CC2)C1 measured_metric=Ki measured_result=359
compound_smiles=COCCOCOCc1cc2c(c(S(=O)(=O)N[C@@H](Cc3nc4ccccc4s3)C(=O)N3CCC(CCF)CC3)c1)NCC(C)(C)C2 measured_metric=Ki measured_result=125

Values were extracted from ChEMBL document CHEMBL1133233.
